# System: MCF-10A
# assay: normalised response (% of control), CellTiter-Glo; higher = more viable cells (100 = DMSO, 0 = benzethonium chloride kill control)
# testParameters: incubation time: 72 h
Kindly return true if reported normalised response is no lower than 90%; return false if it is lower.

Observe how each entry below is paired with its result.
[
  {
    "compound": "COc1cc2nccc(Oc3ccc(NC(=O)C4(C(=O)Nc5ccc(F)cc5)CC4)cc3)c2cc1OC [Cabozantinib] (1000 nM)",
    "targetSystem": "MCF-10A",
    "className": "true"
  },
  {
    "compound": "O=C1CCC(N2C(=O)c3ccccc3C2=O)C(=O)N1 (stereo not given) [Thalidomide] (10000 nM)",
    "targetSystem": "MCF-10A",
    "className": "true"
  },
  {
    "compound": "CCC(C)(C)C(=O)O[C@H]1C[C@@H](C)C=C2C=C[C@H](C)[C@H](CC[C@@H]3C[C@@H](O)CC(=O)O3)[C@H]21 [Simvastatin] (10000 nM)",
    "targetSystem": "MCF-10A",
    "className": "false"
  }
]

Is it the case that Cc1ccc(-n2nc(C(C)(C)C)cc2NC(=O)Nc2ccc(OCCN3CCOCC3)c3ccccc23)cc1 [Doramapimod] (10000 nM) has normalised response reaching or exceeding 90%?
true

Is it the case that N#CCNC(=O)c1ccc(-c2ccnc(Nc3ccc(N4CCOCC4)cc3)n2)cc1 [Momelotinib] (10000 nM) has normalised response reaching or exceeding 90%?
false

Data provenance is the supplement of paper PMC4862054.
